TGT: TBPS binding
EXPERIMENT: Steroid inhibition of TBPS binding
EXPERIMENTAL_CONDITIONS: Table IV-2; read-out: TBPS IC50
pIC50: −log10 of the molar value.
Please provide measured pIC50 for the entries that follow.

Solved entries (count: 2):
1. C[C@@]1(O)CC[C@H]2[C@@H](C[C@@H]3[C@@H]2CC[C@]2(C)[C@@H](C(=O)Cn4cc(C#N)cn4)CC[C@@H]32)C1    7.00 to 8.00
2. CC(=O)[C@H]1CC[C@H]2[C@@H]3C[C@H]4C[C@](C)(O)CC[C@@H]4[C@H]3CC[C@]12C    7.00 to 8.00

In the following, a different compound is considered.
Input line: Using the record for C[C@@]1(O)CC[C@H]2[C@H](C[C@@H]3[C@@H]2CC[C@]2(C)[C@@H](C(=O)Cn4cc(C#N)cn4)CC[C@@H]32)C1 , report its pIC50.
Output line: 7.00 to 8.00

----------
TGT: GABAA receptor (rat brain cortical membranes, [35S]-TBPS binding)
EXPERIMENTAL_CONDITIONS: Table I-5; rat brain cortical membranes, 3 nM [35S]-TBPS, in the presence of 5 mM GABA
READOUT: IC50

Worked examples follow.
1) CC(=O)[C@H]1C[C@H]2[C@@H]3CC[C@H]4C[C@](C)(O)CC[C@@H]4[C@H]3CC[C@]12C    1 to 10 µM
2) COC[C@@]1(O)CC[C@H]2[C@H](CC[C@@H]3[C@@H]2CC[C@]2(C)[C@@H](C(=O)N4CCCC[C@@H]4C)C[C@@H]32)C1    1 to 10 µM

Now for another entry.
Input line: Field: IC50 (GABAA receptor (rat brain cortical membranes, [35S]-TBPS binding)). Entry: CC(=O)[C@H]1C[C@H]2[C@@H]3CC[C@@H]4C[C@](C)(O)CC[C@@H]4[C@H]3CC[C@]12C
Output line: 0.1 to 1 µM

----------
TGT: GABAA receptor (rat brain cortical membranes, [35S]-TBPS binding)
EXPERIMENTAL_CONDITIONS: Table I-5; rat brain cortical membranes, 3 nM [35S]-TBPS, in the presence of 5 mM GABA
READOUT: IC50

Consider the worked cases shown below.
1) C[C@@]1(O)CC[C@@]2(C)[C@H](CC[C@@H]3[C@@H]2CC[C@]2(C)[C@@H](C(=O)Cn4ccnn4)C[C@@H]32)C1 [Compound I-107a]    1000 to 10000 nM
2) COC[C@H]1C[C@H]2[C@@H]3CC[C@@H]4C[C@](C)(O)CC[C@@H]4[C@H]3CC[C@]12C    100 to 1000 nM
3) CC(=O)[C@@H]1C[C@H]2[C@@H]3CC[C@H]4C[C@](C)(O)CC[C@@H]4[C@H]3CC[C@]12C    1000 to 10000 nM
4) CC(=O)[C@H]1C[C@H]2[C@@H]3CC[C@@H]4C[C@](C)(O)CC[C@]4(C)[C@H]3CC[C@]12C    100 to 1000 nM

// input: 2 compounds below; output: IC50 for each
1. C[C@@]1(O)CC[C@H]2[C@H](CC[C@@H]3[C@@H]2CC[C@]2(C)[C@H](C(=O)Nc4ccccc4)C[C@@H]32)C1
2. COC[C@@]1(O)CC[C@H]2[C@H](CC[C@@H]3[C@@H]2CC[C@]2(C)[C@@H](C(=O)Cn4cc(C#N)cn4)C[C@@H]32)C1

Output line:
1: 1000 to 10000 nM; 2: 100 to 1000 nM
